Molecular target: δ-opioid receptors (Rattus norvegicus)
Construct: assayed with a rat brain synaptosomal preparation (P2); from tissue; host or cells: rat brain P2 synaptosomes
Sequence (P33533 whole entry): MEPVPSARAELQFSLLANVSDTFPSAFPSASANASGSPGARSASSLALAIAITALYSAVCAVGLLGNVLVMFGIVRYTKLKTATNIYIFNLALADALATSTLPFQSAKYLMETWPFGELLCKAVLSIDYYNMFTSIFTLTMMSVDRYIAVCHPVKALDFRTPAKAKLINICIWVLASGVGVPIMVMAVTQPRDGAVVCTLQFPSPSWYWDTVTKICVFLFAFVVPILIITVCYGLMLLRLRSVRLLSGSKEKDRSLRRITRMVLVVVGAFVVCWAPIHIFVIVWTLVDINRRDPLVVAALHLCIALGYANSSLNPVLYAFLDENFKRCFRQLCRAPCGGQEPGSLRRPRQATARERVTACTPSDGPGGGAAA
Assay: Rat brain synaptosome (P2) binding, agonist [3H]DPDPE (Example 47)
Settings: from Table II binding
Non-standard residues stand in square brackets, D forms with d. Residues, ends and D or L forms follow the SMILES beside them. Dmt = Cc1cc(O)cc(C)c1C[C@H](N)C(=O)O; Tic = O=C(O)[C@@H]1Cc2ccccc2CN1

Molecule: Cc1cc(O)cc(C)c1C[C@@H](C(=O)N1Cc2ccccc2C[C@H]1C(=O)NC12CC3CC(CC(C3)C1)C2)N(C)C [Compound 15, N,N(Me)2-Dmt-Tic-NH-1-adamantane]
δ/μ selectivity, in words: essentially nonselective
//
Molecule: Cc1cc(O)cc(C)c1C[C@@H](C(=O)N1Cc2ccccc2C[C@@H]1C(=O)NC12CC3CC(CC(C3)C1)C2)N(C)C [Compound 16, N,N(Me)2-Dmt-D-Tic-NH-1-adamantane]
δ/μ selectivity, in words: weakly μ selective
//
Molecule: Cc1cc(O)cc(C)c1C[C@H](N)C(=O)N1Cc2ccccc2C[C@H]1C(=O)Nc1nnn[nH]1 [Compound 10, H-Dmt-Tic-NH-tetrazole-5-yl]
δ/μ selectivity, in words: essentially nonselective
//
Molecule: COC(=O)[C@@H]1Cc2ccccc2CN1C(=O)[C@@H](N)Cc1c(C)cc(O)cc1C [Compound 8, H-Dmt-Tic-OMe] (H-[Dmt]-[Tic]-OMe)
δ/μ selectivity, in words: weakly μ selective
